Values from PubChem BioAssay (NCI)

# Test system: OVCAR-5 ovarian
# PROTOCOL SUMMARY: NCI-60 one-dose screen, 48 h (100 = growth as untreated, 0 = no growth, -100 = all killed)
# PROTOCOL CONDITIONS: 10 µM unless noted
Compounds without any hit were thinned out: in the full panel of roughly 83,000, 20% have a hit.
For each entry below, report its growth value.
Response body: numeric value in %, unit text excluded.

// query Item O=C1Nc2cc(-c3ccc(NS(=O)(=O)c4ccc([N+](=O)[O-])cc4)cc3)ccc2/C1=C/c1ccc[nH]1 has what recorded growth?
// result 27.5

// query Item CN(C)c1nc(NCCNS(=O)(=O)c2ccc(C(=O)/C=C/c3ccc(Cl)cc3)cc2)nc(N2CCOCC2)n1 has what recorded growth?
// result 55.4

// query Item O=C(N/N=C/c1ccc(Cl)o1)c1[nH]c2ccc(Br)cc2c1-c1ccccc1 has what recorded growth?
// result -24.9

// query Item ClC(Cn1ncc2c(Nc3cccc(Br)c3)nc(SCCN3CCOCC3)nc21)c1ccc(Br)cc1 (stereo not drawn) has what recorded growth?
// result 18.1

// query Item CC(C)(C)OC(=O)N1CCC2(CC1)Oc1ccccc1[C@H]1CC(c3ccc(Br)cc3)=NN12 has what recorded growth?
// result 122

// query Item NNc1ncnc2sc3c(c12)CCN(Cc1ccccc1)C3 has what recorded growth?
// result 70.6

// query Item COc1cc(C2CC(c3ccc(F)cc3)=Nc3c(N)nc(N)nc3N2)ccc1Oc1nc(Nc2ccc(F)cc2)nc(N(C)C)n1 (stereo not drawn) has what recorded growth?
// result 100

// query Item CN(C)CCCNC(=S)Nc1ccc(/C=C/c2ccc(Cl)cc2)cc1 has what recorded growth?
// result -99.6

// query Item COc1ccc(S(=O)(=O)Nc2ccc(-c3ccc4c(c3)NC(=O)/C4=C\c3ccc[nH]3)cc2)cc1OC has what recorded growth?
// result 18.5

// query Item COc1ccc(N=Nc2c(N)nn3c(-c4cc5ccccc5oc4=O)ccnc23)cc1 has what recorded growth?
// result 68.5

// query Item Cn1cc(-c2cc3nc(-c4cn(C)c5ncccc45)cc(N)n3n2)c2cc(F)ccc21 has what recorded growth?
// result 47.9

// query Item CCOc1ccccc1NC(=O)N/C(N)=N/c1nc2ccccc2s1 has what recorded growth?
// result 16.9

// query Item CC(=O)c1c2c(c3ccc4c5ccccc5ccc4n13)C(=O)c1ccccc1C2=O has what recorded growth?
// result 115

// query Item COc1ccc2c(c1)C(Sc1ccc(Cl)cc1)c1c(nc(N)c(C#N)c1N)O2 (stereo not drawn) has what recorded growth?
// result 108

// query Item COc1ccc(C(=O)NNC(=O)CSc2nc3sc4c(c3c(=O)n2-c2ccc(Cl)cc2)CCCC4)cc1 has what recorded growth?
// result 78.9

// query Item CN(C(=O)CN1C(=O)/C(=C/c2ccco2)SC1=S)C1CCS(=O)(=O)C1 (stereo not drawn) has what recorded growth?
// result 111

// query Item Cc1ccc(C2CC(c3ccc(NC(=S)Nc4ccccc4)cc3)=NN2c2ccc(S(N)(=O)=O)cc2)cc1 (stereo not drawn) has what recorded growth?
// result 16.2

// query Item Oc1ccc(Cl)c(Nc2ncnc3c2cnn3CC(Cl)c2ccc(Br)cc2)c1 (stereo not drawn) has what recorded growth?
// result 49.6

// query Item CCCCN1C(=O)/C(=C\C(=O)c2cc3ccccc3oc2=O)c2ccccc21 has what recorded growth?
// result 96.7

// query Item N/C(=N\c1nc2ccc([N+](=O)[O-])cc2s1)NC(=O)Nc1ccccc1Cl has what recorded growth?
// result 38.2

// query Item O=CNc1cccc(-n2cnc3cc(-c4ccc(O)cc4)ccc32)c1 has what recorded growth?
// result 68.7

// query Item CCCn1c(NC(=O)c2cccc(C(N)=O)c2)nc2ccc(CN3CCCCC3)cc21 has what recorded growth?
// result 83.3

// query Item Cc1ccc2c(c1)/C(=C/C(=O)c1cc3ccccc3oc1=O)C(=O)N2 has what recorded growth?
// result 77.4

// query Item COc1ccc(C(=O)c2cc(C(C)=O)c3c(C)cc(C)cn23)cc1 has what recorded growth?
// result 80.5

// query Item Nc1nn2c(-c3cc4cc(Br)ccc4oc3=O)ccnc2c1N=Nc1ccc(S(N)(=O)=O)cc1 has what recorded growth?
// result 112

// query Item O=c1ccc(Cn2c(C(F)(F)F)cc3c(Cl)ncnc32)c[nH]1 has what recorded growth?
// result 126

// query Item Cn1cc(-c2cc3nc(-c4cn(C)c5ncc(Br)cc45)cc(N)n3n2)c2cc(F)ccc21 has what recorded growth?
// result 31.8

// query Item Cc1nc2sccn2c1-c1nnc(SCC(C)C)o1 has what recorded growth?
// result 90.5
